Where do these numbers come from? They come from PubChem BioAssay (NCI).

Test system: UACC-62 melanoma
Test description: NCI tumour cell line growth inhibition, 48 h
Parameter: TGI

Please review the entries below; each comes with its answer.
Molecule	TGI
CCOC(=O)c1c(NC(=O)c2cccs2)sc2c1CCC2	> 100 µM
COC(=O)Nc1nc2ccc(Oc3ccc(NC(=O)Nc4cc(C(F)(F)F)ccc4F)cc3)cc2s1	> 25 µM
c1nc(N2CC2)c2cnn(C3CCCCO3)c2n1 (stereo unspecified)	> 100 µM
CCOC(=O)/C(C#N)=C/c1[nH]c(C(=O)OCc2ccccc2)c(C)c1C	> 100 µM
C[C@@H]1OC(=O)N2CCCC(=C3SCCCS3)C12 (stereo partly specified)	> 100 µM
CCCCC(=O)c1ccc2ccccc2c1O	> 100 µM
Nc1nc(I)nc2c1ncn2C1OC(COS(N)(=O)=O)C(O)C1O (stereo unspecified)	0.0606 µM
Cc1ccc(C(=O)N(CCCN)C(c2oc3cc(Cl)ccc3c(=O)c2Cc2ccccc2)C(C)C)cc1 (stereo unspecified)	2.3 µM
COc1ccccc1NC(=S)Nc1cc(C)cc(C)n1	> 100 µM
CC(=N)OC1CC2CCC1(C)C2(C)C (stereo unspecified)	> 100 µM

Request: I would be grateful if you could share the reported TGI for COC(=O)c1cc2c(cc1CC1Cc3cc4c(cc3C1=O)CCC4)CCC2 (stereo unspecified) .
Result: > 100 µM

====

Test system: SF-295 CNS
Test description: NCI tumour cell line growth inhibition, 48 h; in the data active = GI50 below about 0.43 µM; inactive = the rest
Give your call using only these classes: active, inactive

Molecule	Group label
COC(=O)Nc1nc2ccc(Oc3ccc(NC(=O)Nc4cc(C(F)(F)F)ccc4F)cc3)cc2s1	inactive
O=C(CCc1nnc2sc(-c3ccc(Cl)cc3Cl)nn12)c1nc2ccccc2[nH]1	inactive
CC[C@@]1(c2ccccc2)C2=C(CC(C)(C)CC2=O)Nc2[nH]ncc21	inactive

Request: Could you please tell me the result logged for O=C1Nc2ccccc2C1(c1ccc(O)cc1)c1ccc(O)cc1 in this assay?
Result: inactive

Request: Could you please tell me the result logged for Nc1nc2c(nnn2C2CC(O)C(CO)O2)c(=O)[nH]1 (stereo not given) in this assay?
Result: inactive

Request: Could you please tell me the result logged for OCCCNc1nc(=S)[nH]c2[nH]ncc12 in this assay?
Result: inactive

Request: Could you please tell me the result logged for COc1cc2ncn(-c3cc(OCc4cccs4)c(C(N)=O)s3)c2cc1OC in this assay?
Result: inactive

====

System: RXF 393 renal
Test description: NCI tumour cell line growth inhibition, 48 h; in the data active means GI50 below about 0.43 µM; inactive means the rest
Give your call using only these classes: 1 = active, -1 = inactive

Compound	Target	Group label
Cc1ccc(-c2nc3nc(-c4ccccc4)nc(N4CCCNCC4)c3o2)cc1	RXF 393 renal	-1
CS(=O)(=O)c1ccc(-n2nc(C(F)(F)F)cc2OC2CCCC2)cc1	RXF 393 renal	-1
O=C(Nc1ccc(-c2nc(N3CCOCC3)c3cccn3n2)cc1)Nc1cccnc1	RXF 393 renal	1

Request: Could you please tell me the result logged for CC/C=C\C[C@H](F)C/C=C1/C(=O)C=C[C@@H]1C/C=C\CCCC(=O)O in this assay?
Result: -1

Request: Could you please tell me the result logged for Nc1nc(N(Cc2ccccc2)c2ccccc2)c2cn[nH]c2n1 in this assay?
Result: -1

Request: Could you please tell me the result logged for CCCCCCCCn1ccc2cc(NC(=O)Cn3cc(CN4CCCC4)nn3)ccc21 in this assay?
Result: -1

Request: Could you please tell me the result logged for Nc1nc2c(nnn2C2CC(O)C(CO)O2)c(=O)[nH]1 (stereo unspecified) in this assay?
Result: -1

Request: Could you please tell me the result logged for CC1(C)OC2=C(CC1Br)C(=O)C(=O)c1ccccc12 (stereo unspecified) in this assay?
Result: -1

Request: Could you please tell me the result logged for Cc1ccc(C(=O)NC(C)C)cc1-c1ccc(C(=O)NCC2CC2)cc1 in this assay?
Result: -1

Request: Could you please tell me the result logged for COc1ccc(-c2onc(N)c2-c2cc(OC)c3c(c2)OCO3)cc1 in this assay?
Result: -1

Request: Could you please tell me the result logged for CCN(CC)CCCC(C)Nc1c2ccc(Cl)cc2nc2ccc(O)cc12 (stereo unspecified) in this assay?
Result: -1
